# Herbicidal effects Di annotations
# Tested on: Diaitaria ciliaris (Di)
# test.details: Test Example 3: herbicidal effects by upland field foliage treatment
# Assay type: in vivo
# Design: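 grade of growth control; 5 = at least 90%; 4 = 70 to 90%; 3 = 50 to 70%; 2 = 30 to 50%; 1 = 10 to 30%; 0 = under 10%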
# test.context: 100 g of the active ingredient per 10 ares, evaluated on the 14th day after treatment
Please respond with just the number, no unit label.

# count of solved cases: 5
{"compound": "COC(=O)CSc1cc(-c2ccc(C(F)(F)F)n(C)c2=O)c(F)cc1Cl [1-46]", "result.type": "Herbicidal effects Di", "result.value": 5}
{"compound": "Cn1c(C(F)(F)F)ccc(-c2cc(OCCCl)c(Cl)cc2F)c1=O [1-171]", "result.type": "Herbicidal effects Di", "result.value": 5}
{"compound": "COc1cc(-c2ccc(C(F)(F)F)n(C)c2=O)ccc1Cl [1-108]", "result.type": "Herbicidal effects Di", "result.value": 5}
{"compound": "CC(C)Oc1cc(-c2ccc(C(F)(F)F)n(C)c2=O)c(Cl)cc1Cl [1-29]", "result.type": "Herbicidal effects Di", "result.value": 5}
{"compound": "CCCCCCOC(=O)COc1cc(-c2ccc(C(F)(F)F)n(C)c2=O)c(F)cc1Cl [1-149]", "result.type": "Herbicidal effects Di", "result.value": 5}

[in] Request the reported Herbicidal effects Di associated with CCOC(=O)COC(=O)c1cc(-c2ccc(C(F)(F)F)n(C)c2=O)c(F)cc1Cl [1-142]
[out] 5

[in] Request the reported Herbicidal effects Di associated with Cn1c(C(F)(F)F)ccc(-c2ccc(Cl)cc2F)c1=O [Compound No. 1-2]
[out] 5

[in] Request the reported Herbicidal effects Di associated with CC#CCOc1cc(-c2ccc(C(F)(F)F)n(C)c2=O)c(F)cc1Cl [1-175]
[out] 5

[in] Request the reported Herbicidal effects Di associated with Cn1c(C(F)(F)F)ccc(-c2cc(SCC(=O)O)c(Cl)cc2Cl)c1=O [1-127]
[out] 5

[in] Request the reported Herbicidal effects Di associated with CCCOC(=O)c1cc(-c2ccc(C(F)(F)F)n(C)c2=O)c(F)cc1Cl [1-158]
[out] 5

[in] Request the reported Herbicidal effects Di associated with CCOC(=O)CNc1cc(-c2ccc(C(F)(F)F)n(C)c2=O)c(F)cc1Cl [1-63]
[out] 5

[in] Request the reported Herbicidal effects Di associated with Cn1c(C(F)(F)F)ccc(-c2cc(O)c(Cl)cc2F)c1=O [Compound No. 1-13]
[out] 5

----------
# Tested on: green foxtail (Se)
# test.details: Test Example 5: crop plant selectivity by upland field soil treatment (wheat), herbicidal effects
# Assay type: in vivo
# Set-up: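 grade of growth control; 5 = at least 90%; 4 = 70 to 90%; 3 = 50 to 70%; 2 = 30 to 50%; 1 = 10 to 30%; 0 = under 10%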
# test.context: dose 6.3 g ai/10a, 21st day after application
result.type: Herbicidal effects Se
Please respond with just the number, no unit label.

{"smiles.structure": "Cn1cc(-c2cc(Oc3ccccc3)c(Cl)cc2F)c(=O)cc1C(F)(F)F", "Herbicidal effects Se": 5}
{"smiles.structure": "Cn1c(C(F)(F)F)ccc(-c2c(F)cc(Cl)c3occc23)c1=O", "Herbicidal effects Se": 5}

[in] Request the reported Herbicidal effects Se associated with C#CCOc1cc(Cl)cc(F)c1-c1ccc(C(F)(F)F)n(C)c1=O
[out] 5

[in] Request the reported Herbicidal effects Se associated with COc1cc(-c2ccc(C(F)(F)F)n(N)c2=O)c(F)cc1Cl
[out] 5

[in] Request the reported Herbicidal effects Se associated with Cc1cc2c(-c3cn(C)c(C(F)(F)F)cc3=O)c(F)cc(Cl)c2o1
[out] 5

[in] Request the reported Herbicidal effects Se associated with CON=C(C)c1cc(-c2ccc(C(F)(F)F)n(C)c2=O)c(F)cc1Cl
[out] 5
